Target: T1, human CD19 exon1-3-His tag protein (human, UniProt P15391 20-186, limits assumed)
T1 construct: membrane-distal part of the extracellular region, made in HEK293E cells; not shown: His tag
T1 sequence (looked up): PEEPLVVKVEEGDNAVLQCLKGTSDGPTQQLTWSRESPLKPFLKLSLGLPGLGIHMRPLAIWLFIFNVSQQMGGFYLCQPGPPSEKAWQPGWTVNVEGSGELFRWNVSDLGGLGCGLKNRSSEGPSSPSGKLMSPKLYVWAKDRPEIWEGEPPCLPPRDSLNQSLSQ
Experiment: ELISA, coated human CD19 exon 1-3-His
ASSAY READOUT: OD450 at 10 nM (OD450)
Give the value in OD450 but do not write OD450 after it.

Would you please look over these solved cases?
- BINDER: "F3.121.4 (antibody, human IgG1, V domains shown, human-murine chimeric antibody, human IgG1 constant; also called chimeric antibody F3.121.4) VH: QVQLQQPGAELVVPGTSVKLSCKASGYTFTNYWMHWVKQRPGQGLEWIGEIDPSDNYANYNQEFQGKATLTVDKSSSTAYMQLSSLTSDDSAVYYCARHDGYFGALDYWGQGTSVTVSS VL: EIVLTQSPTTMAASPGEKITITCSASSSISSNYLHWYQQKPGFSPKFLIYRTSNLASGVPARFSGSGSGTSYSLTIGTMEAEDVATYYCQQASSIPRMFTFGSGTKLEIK"
  TEST RESULT: 0.05
- BINDER: "F3.121.4-L3H1 (antibody, mouse IgG1, kappa, V domains shown, humanized antibody of F3.121.4, VL3+VH1, murine IgG1 constant regions) VH: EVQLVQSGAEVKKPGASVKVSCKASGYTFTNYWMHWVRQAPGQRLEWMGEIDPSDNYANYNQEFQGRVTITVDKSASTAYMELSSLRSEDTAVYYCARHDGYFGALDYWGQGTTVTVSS VL: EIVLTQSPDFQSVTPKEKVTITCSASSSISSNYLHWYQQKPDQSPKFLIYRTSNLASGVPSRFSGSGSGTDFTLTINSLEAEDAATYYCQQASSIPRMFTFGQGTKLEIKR"
  TEST RESULT: 0.05

In the following, a different binder is considered.
Could you share which OD450 at 10 nM value was measured for F3.121.4-L3H2 (antibody, mouse IgG1, kappa, V domains shown, humanized antibody of F3.121.4, VL3+VH2, murine IgG1 constant regions) VH: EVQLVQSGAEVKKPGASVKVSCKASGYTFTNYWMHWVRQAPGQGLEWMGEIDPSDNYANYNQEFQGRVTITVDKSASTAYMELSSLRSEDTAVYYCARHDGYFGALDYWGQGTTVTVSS VL: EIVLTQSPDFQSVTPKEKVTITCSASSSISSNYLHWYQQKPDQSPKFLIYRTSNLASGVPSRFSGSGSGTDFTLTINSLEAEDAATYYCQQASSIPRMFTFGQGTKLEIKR ?
0.05
